log10(k2): recorded values
Biological target: T1, Caspase-9 (UniProt P55211 1-416, limits assumed)
T1 sequence (looked up): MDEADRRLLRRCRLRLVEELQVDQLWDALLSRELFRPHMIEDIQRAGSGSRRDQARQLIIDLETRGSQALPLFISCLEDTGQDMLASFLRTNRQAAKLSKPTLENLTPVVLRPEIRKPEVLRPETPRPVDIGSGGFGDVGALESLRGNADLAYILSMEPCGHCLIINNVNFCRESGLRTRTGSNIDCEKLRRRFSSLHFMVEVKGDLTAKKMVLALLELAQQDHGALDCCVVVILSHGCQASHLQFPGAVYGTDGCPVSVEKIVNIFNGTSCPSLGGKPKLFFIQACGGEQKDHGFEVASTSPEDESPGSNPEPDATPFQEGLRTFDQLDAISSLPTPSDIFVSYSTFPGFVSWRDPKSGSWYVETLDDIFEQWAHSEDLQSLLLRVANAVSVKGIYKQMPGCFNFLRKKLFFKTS
Test: cell-based or functional assay
Numbered stars: 1 amine (or outer) side, 2 acyl side, 3 side chain; on linkers, the order of the positions; unused ones are H or OH. Square brackets hold non-standard residues; d marks the D form. * marks the point of attachment. CH═CH‑CON(CH2Ph)2 = O=C(/C=C/*)N(Cc1ccccc1)Cc1ccccc1; AAsp = aza-Asp, O=C(N(CC(=O)[*:3])N[*:1])[*:2]; CH═CH‑CON(CH3)CH2Ph = CN(Cc1ccccc1)C(=O)/C=C/*; Cbz = O=C(OCc1ccccc1)*
Values reflect log10 of reported k2 (M⁻¹ s⁻¹).

Qu. Any idea what its log10(k2) is? The binder is Cbz-LET[AAsp]-{CH═CH‑CONHCH2‑4‑F‑Ph} [Cbz-Leu-Glu-Thr-AAsp-CH═CH-CONHCH2-4-F-Ph]
Ans. 3.23

Qu. Give its log10(k2) value. Item: Cbz-LET[AAsp]-{CH═CH‑CON(CH3)CH2‑1‑Napth} [Cbz-Leu-Glu-Thr-AAsp-CH═CH-CON(CH3)CH2-1-Napth]
Ans. 3.70

Qu. Reported log10(k2), binder Cbz-LET[AAsp]-{CH═CH‑CON(CH3)CH2Ph} (SMILES CC(C)C[C@H](NC(=O)OCc1ccccc1)C(=O)N[C@@H](CCC(=O)O)C(=O)N[C@H](C(=O)NN(CC(=O)O)C(=O)/C=C/C(=O)N(C)Cc1ccccc1)[C@@H](C)O) [Cbz-Leu-Glu-Thr-AAsp-CH═CH-CON(CH3)CH2Ph] : ____
Ans. 3.64

Qu. Would you kindly share the measured log10(k2) for Cbz-LET[AAsp]-{CH═CH‑CON(CH2Ph)2} (SMILES CC(C)C[C@H](NC(=O)OCc1ccccc1)C(=O)N[C@@H](CCC(=O)O)C(=O)N[C@H](C(=O)NN(CC(=O)O)C(=O)/C=C/C(=O)N(Cc1ccccc1)Cc1ccccc1)[C@@H](C)O) [Cbz-Leu-Glu-Thr-AAsp-CH═CH-CON(CH2Ph)2] ?
Ans. 3.04

Qu. Given the entry Cbz-Val-[AAsp]-{CH═CH‑4‑Cl‑Ph} [Cbz-Val-AAsp-CH═CH-4-Cl-Ph] , report its measured log10(k2).
Ans. 1.28

Data origin, for the record: patent US20050256058A1
